experiment: qHTS Assay for Lipid Storage Modulators (AID 1519); details: Drosophila S3 cells, BODIPY lipid droplet/cell ratio, laser cytometry; at 57.5 µM (top of the series); cells loaded with oleic acid; note: % is set by controls: 0 for no effect and ±100 for the full control effect
Records with an inconclusive call do not appear.
Measure name: activity change, negative = inhibition (%)
One number for each entry, in %.

Kindly give each listed record's activity change, negative = inhibition.
1. OCC1CCCN2CCCCC12 (stereo unspecified)
2. CC(=O)OC1CC2C(C)(C)C(=O)C=C[C@]2(C)C2CC[C@]3(C)C(=CC(=O)OC3c3ccoc3)[C@]12C (stereo partly specified)
3. CNC(C)[C@@H](O)c1ccccc1 (stereo partly specified)
4. CCC(CO)NC(=O)C1C=C2c3cccc4[nH]cc(c34)CC2N(C)C1 (stereo unspecified)
5. O=c1ccc2cc(OC3OC(CO)C(O)C(O)C3O)c(O)cc2o1 (stereo unspecified)
6. O=c1cccc2n1CC1CC2CN2CCCCC12 (stereo unspecified)
7. CC1O[C@@H](OC2CC(O)[C@@]3(CO)C4C(O)C[C@@]5(C)C(C6=CC(=O)OC6)CC[C@]5(O)C4CC[C@]3(O)C2)C(O)C(O)C1O (stereo partly specified)
8. CN1CCCC2(CCN(C(=O)Oc3ccccc3)CC2)C1

Reply:
1. 1.09
2. -3.77
3. -6.91
4. 10.6
5. -4.17
6. 0.982
7. 3.6
8. -5.13

Kindly give each listed record's activity change, negative = inhibition.
1. CC(C)(O)[C@@H]1C2OC(=O)[C@@H]1[C@]1(O)C[C@H]3O[C@]34C(=O)O[C@H]2[C@]14C
2. CC1=C2C3OC(=O)C(C)C3CC[C@@]2(C)C=CC1=O (stereo partly specified)
3. C[C@@]12CC(c3ccoc3)OC(=O)C1CC[C@@]1(C)C2C2C=C[C@@]1(O)C(=O)O2 (stereo partly specified)

Reply:
[5.46, 1.14, 2.16]

---

experiment: Redox Reaction Profiling qHTS: Assay Interference Panel against the NCATS CANVASS Library (AID 1347401); conditions: resazurin-DTT redox cycling, fluorescence, 15 min; series mostly up to 57.1 µM
Inconclusive results are not listed. Activity calls are given as the source filed them. Calls follow the shape of the dose curve; as a rule, active = well fitted activation curve with a large enough effect; inconclusive = small, poorly fitted or top-dose-only effect; inactive = no such curve, though single readings can be large or run the other way.
Thanks in advance; please answer with one of these: true (1) for active, false (0) for inactive

Reference set (4 entries):
Compound	Class assignment
C[C@]12CCC3[C@@H](CC[C@@H]4C[C@@H](O)CC[C@]34CO)[C@@]1(O)CC[C@@H]2C1=CC(=O)OC1 (stereo not given in full)	false (0)
C=C[C@]12C=CCN3CC[C@@]4(c5ccccc5NC(=O)[C@@H]4C1)[C@@H]32	false (0)
CO[C@H]1C[C@H](O[C@H]2[C@@H](O)C[C@H](O[C@H]3CC[C@]4(C=O)[C@H]5CC[C@]6(C)C(C7=CC(=O)OC7)CC[C@]6(O)[C@@H]5CC[C@]4(O)C3)O[C@@H]2C)O[C@H](C)[C@H]1O[C@H]1C[C@@H](OC)[C@@H](O[C@@H]2O[C@H](CO)[C@@H](O)[C@H](O)[C@H]2O)[C@@H](C)O1 (stereo not given in full)	false (0)
CO[C@@]12c3c(C)cc(O)c4c(=O)occ(c34)C(=O)[C@@H]1[C@]13COC(=O)c4c(O)cc(C)c(c41)C(=O)[C@H]2[C@@H]3OC(C)=O	false (0)

Query: What did the test return for C=C(C)[C@H]1C(=O)c2c3c(cc4c5c(n1c24)[C@@]1(C)[C@@H](CC[C@H]2[C@](C)(/C=C/C=C(\C)C(=O)O)[C@@H](O)CC[C@@]21C)C5)C1=CC(C)(C)OC(C)(C)[C@H]1[C@@H]3O ?
Reply: true (1)

---

assay: Cell Viability - LYMP2-003 (AID 965); conditions: LYMP2-003 lymphoblastoid cell viability; series mostly up to 92.2 µM;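 note: cells exposed to compounds for 24 h before reading; nearly all actives have a fitted effect of over 50% in size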
Inconclusive results are not listed. Active and inactive are the calls of the source. The call rests on the fitted dose curve; in most records, active means well fitted cell-killing curve with a large enough effect; inconclusive means small, poorly fitted or top-dose-only effect, or effect the other way; inactive means flat fitted curve, though single readings scatter.
Thanks in advance; please answer with one of these: 1.0 for active, 0.0 for inactive

Query: What did the test return for Clc1nc(Cl)nc(Cl)n1 ?
Reply: 0.0

Query: What did the test return for Cc1ccc2ccccc2c1 ?
Reply: 0.0

Query: What did the test return for C=CC(=O)OCC ?
Reply: 0.0

Query: What did the test return for Nc1ccc(Br)cc1 ?
Reply: 0.0

Query: What did the test return for Cc1ccc(O)c(C)c1 ?
Reply: 0.0

Query: What did the test return for CNC(=O)O/N=C/C(C)(C)SC ?
Reply: 0.0

Query: What did the test return for Nc1c(Cl)c(Cl)nc(C(=O)O)c1Cl ?
Reply: 0.0

Query: What did the test return for ClC1=C(Cl)C2(Cl)C3C4C=CC(C4)C3C1(Cl)C2(Cl)Cl (stereo unspecified) ?
Reply: 1.0

Query: What did the test return for O=C=NC1CCCCC1 ?
Reply: 0.0

---

tested on: GB4; assay: qHTS profiling for inhibitors of Plasmodium falciparum proliferation (AID 504749); note: nearly all actives have a fitted effect of over 60% in size; conditions: P. falciparum in erythrocytes, SYBR Green DNA, 72 h; series mostly up to 28.7 µM
Records with an inconclusive call do not appear. The source made the active and inactive calls. The call rests on the fitted dose curve; in most records, active means well fitted inhibition curve with a large enough effect; inconclusive means small, poorly fitted or top-dose-only effect; inactive means flat fitted curve, though single readings scatter.
Thanks in advance; please answer with one of these: y = active, n = inactive

Reference set (8 entries):
Compound	Target	Class assignment
CC[C@]1(c2cccc(O)c2)CCCCN(C)C1	GB4	y
Clc1ccc([C@@H](OCCN2CCCCC2)c2ccccc2)cc1	GB4	y
C[C@]12CC[C@H](OS(=O)(=O)O)CC1=CCC1C2CC[C@]2(C)C(=O)CC[C@@H]12 (some centres undefined)	GB4	n
C[C@@]12CC[C@H]3[C@@H](CC[C@@H]4C[C@H]5S[C@H]5C[C@]43C)[C@H]1CC[C@H]2O	GB4	n
C[N+]1([O-])[C@@H]2CC[C@H]1CC(OC(=O)[C@@H](CO)c1ccccc1)C2 (some centres undefined)	GB4	n
C[C@]12CC[C@H]3[C@@H](CCC4=CC(=O)CC[C@@]43C)[C@@H]1CC[C@@H]2O	GB4	n
C=CC1CN2CCC1CC2C(OC(=O)OCC)c1ccnc2ccc(OC)cc12 (centres undefined)	GB4	y
C[N+]1(C)[C@@H]2CC[C@H]1CC(OC(=O)[C@@H](CO)c1ccccc1)C2 (some centres undefined)	GB4	n

Query: What did the test return for O=c1ccc2cc(O[C@H]3O[C@@H](CO)[C@@H](O)[C@@H](O)[C@@H]3O)c(O)cc2o1 ?
Reply: n

---

assay: qHTS to identify inhibitors of the type 1 interferon - major histocompatibility complex class I in skeletal muscle: primary screen against the NCATS Mechanism Interrogation Plate v5.0 (MIPE) Libary (AID 1347411); conditions: iHSKM cells + IFN-b, HiBiT-tagged MHC-I luminescence, 24 h; series mostly up to 45.8 µM;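 note: plate controls were vehicle for no effect and reference inhibitor for full effect; nearly all actives have a fitted effect of over 65% in size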
Records with an inconclusive call do not appear. Active and inactive are the calls of the source. The call rests on the fitted dose curve; in most records, active means well fitted inhibition curve with a large enough effect; inconclusive means small, poorly fitted or top-dose-only effect; inactive means no such curve, though single readings can be large or run the other way.

Molecule	outcome
N#CC(O[C@@H]1O[C@H](CO[C@@H]2O[C@H](CO)[C@@H](O)[C@H](O)[C@H]2O)[C@@H](O)[C@H](O)[C@H]1O)c1ccccc1 (stereo partly drawn)	inactive
CC(=O)O[C@@]12CO[C@@H]1C[C@H](O)[C@@]1(C)C(=O)[C@H](O)C3=C(C)[C@@H](O)C[C@@](O)([C@@H](OC(=O)c4ccccc4)[C@H]21)C3(C)C	inactive
CN1C(=O)[C@@H](NC(=O)[C@H](CCC(F)(F)F)[C@H](CCC(F)(F)F)C(N)=O)N=C(c2ccccc2)c2ccccc21	inactive

---

assay: Cell Viability - HUV-EC-C (AID 542); settings: HUV-EC-C endothelial cell viability, qHTS; series mostly up to 92.2 µM;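 note: cells exposed to compound for 40 hours; % is set by controls: 0 for no effect and ±100 for the full control effect; nearly all actives have a fitted effect of over 35% in size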
Records with an inconclusive call do not appear. Activity calls are given as the source filed them. The call rests on the fitted dose curve; in most records, active means well fitted cell-killing curve with a large enough effect; inconclusive means small, poorly fitted or top-dose-only effect, or effect the other way; inactive means flat fitted curve, though single readings scatter.
Measure name: outcome

The examples below pair each entry with its known result.
Compound	Recorded value
S=C=Nc1cccc2ccccc12	inactive
C=CC(=C)C	inactive
OCC1CO1 (centres undefined)	inactive
Nc1c(Cl)c(Cl)nc(C(=O)O)c1Cl	inactive
ClC1=C(Cl)C2(Cl)C3C4CC(C5OC45)C3C1(Cl)C2(Cl)Cl (centres undefined)	inactive
N#CCCCl	inactive

Kindly give each listed record's outcome.
1. CC(C)(C)OO
2. CCCCOCCOP(=O)(OCCOCCCC)OCCOCCCC
3. c1ccc(-c2ccccc2)cc1
4. CNC(=O)O/N=C/C(C)(C)SC
5. Clc1cc(Cl)c(-c2cc(Cl)c(Cl)cc2Cl)cc1Cl
6. O=C(O)COc1ccc(Cl)cc1Cl
7. C[C@H]1CCCC(=O)CCC/C=C/c2cc(O)cc(O)c2C(=O)O1
8. O=C(Cl)/C=C/C(=O)Cl

Reply:
["inactive", "inactive", "inactive", "inactive", "inactive", "inactive", "inactive", "inactive"]

---

biological target: Cytochrome P450 3A4 (Homo sapiens) (UniProt P08684); assay: qHTS for inhibitors of CYP3A4 against the NCATS DSHEA and TCM libraries (AID 1919971); settings: recombinant CYP3A4 enzyme activity, luminescence qHTS; series mostly up to 34.1 µM
Sequence (P08684 whole entry, looked up): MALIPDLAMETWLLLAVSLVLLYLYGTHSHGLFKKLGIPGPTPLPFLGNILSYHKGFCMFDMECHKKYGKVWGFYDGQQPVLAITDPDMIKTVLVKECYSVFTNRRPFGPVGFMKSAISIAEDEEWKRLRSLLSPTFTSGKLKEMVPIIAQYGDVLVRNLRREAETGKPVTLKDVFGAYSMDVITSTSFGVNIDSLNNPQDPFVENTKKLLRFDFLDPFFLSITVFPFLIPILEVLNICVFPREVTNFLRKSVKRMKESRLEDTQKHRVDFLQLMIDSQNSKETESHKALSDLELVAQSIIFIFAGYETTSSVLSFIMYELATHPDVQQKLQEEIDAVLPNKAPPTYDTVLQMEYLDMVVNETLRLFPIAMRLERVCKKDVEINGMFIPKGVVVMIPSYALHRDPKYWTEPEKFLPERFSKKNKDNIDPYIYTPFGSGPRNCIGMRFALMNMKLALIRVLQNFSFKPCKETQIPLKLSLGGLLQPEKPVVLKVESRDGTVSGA
Records with an inconclusive call do not appear. The source made the active and inactive calls. Calls come from the whole dose curve; as a rule, active = well fitted inhibition curve with a large enough effect; inconclusive = small, poorly fitted or top-dose-only effect; inactive = no such curve, though single readings can be large or run the other way.
Thanks in advance; please answer with one of these: 1 for active, 0 for inactive

Molecule	Class assignment
COC1=CC(=O)OC(CCc2ccccc2)C1 (centres undefined)	0
COc1ccc2c(c1O)-c1c(OC)c(OC)cc3c1[C@H](C2)N(C)CC3	0
C=C[C@H]1CN2CC[C@@]3(C(=O)Nc4ccccc43)[C@@H]2C[C@@H]1/C(=C\OC)C(=O)OC	1

Query: What did the test return for COC1=CC(=O)O[C@@H](/C=C/c2ccc3c(c2)OCO3)C1 ?
Reply: 1
